Test system: C2A
Test: qHTS profiling for inhibitors of Plasmodium falciparum proliferation (AID 504749); further: nearly all actives have a fitted effect of over 60% in size
Conditions: P. falciparum in erythrocytes, SYBR Green DNA, 72 h; series mostly up to 28.7 µM
Records with an inconclusive call do not appear. Active and inactive are the calls of the source. The call rests on the fitted dose curve; in most records, active means well fitted inhibition curve with a large enough effect; inconclusive means small, poorly fitted or top-dose-only effect; inactive means flat fitted curve, though single readings scatter.
Readout name: outcome

[
  {
    "Compound": "C=C1CC2C3C=C(C)C4=CC(=O)CCC4(C)C3CCC2(C)[C@@]1(OC(C)=O)C(C)=O (stereo partly drawn)",
    "Readout name": "outcome",
    "Result": "inactive"
  },
  {
    "Compound": "CC[C@H]1OC(=O)[C@H](C)C(=O)[C@H](C)[C@@H](OC2O[C@H](C)C[C@H](N(C)C)[C@@H]2O)[C@@](C)(OC)C[C@@H](C)C(=O)[C@@H](C)C2N(CCCCn3cnc(-c4cccnc4)c3)C(=O)O[C@@]21C (stereo partly drawn)",
    "Readout name": "outcome",
    "Result": "inactive"
  },
  {
    "Compound": "Cc1ccc(S(=O)(=O)NC(=O)NC(C)Cc2ccccc2)cc1 (stereo not drawn)",
    "Readout name": "outcome",
    "Result": "inactive"
  }
]

----------
Biological target: Cytochrome P450 1A2 (Homo sapiens) (UniProt P05177)
Sequence (P05177 whole entry, looked up): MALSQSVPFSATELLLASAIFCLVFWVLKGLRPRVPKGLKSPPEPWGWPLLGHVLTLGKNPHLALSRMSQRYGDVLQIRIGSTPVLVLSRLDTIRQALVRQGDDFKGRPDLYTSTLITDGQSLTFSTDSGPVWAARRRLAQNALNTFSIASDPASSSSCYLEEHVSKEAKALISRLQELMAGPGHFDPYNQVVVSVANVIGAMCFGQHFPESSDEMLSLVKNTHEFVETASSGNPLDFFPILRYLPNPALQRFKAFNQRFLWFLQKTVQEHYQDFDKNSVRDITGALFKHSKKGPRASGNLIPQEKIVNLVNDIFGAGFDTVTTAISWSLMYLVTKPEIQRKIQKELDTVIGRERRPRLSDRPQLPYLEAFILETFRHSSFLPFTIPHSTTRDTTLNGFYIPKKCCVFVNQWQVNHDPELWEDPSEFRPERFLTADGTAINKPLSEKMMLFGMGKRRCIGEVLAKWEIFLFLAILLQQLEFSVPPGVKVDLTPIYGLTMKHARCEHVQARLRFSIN
Experiment: p450-cyp1a2 (AID 410); further: potency means the concentration at half of the fitted maximal effect
Conditions: recombinant CYP1A2, luciferin-ME demethylation, luminescence; series mostly up to 57 µM
Inconclusive results are not listed. Active and inactive are the calls of the source. The call rests on the fitted dose curve.
Readout name: Potency

# count of solved cases: 5
[
  {
    "Molecule": "CC(C)C[C@@H](CC(=O)N[C@@H](CCC(=O)O)CC(=O)O)NC(=O)[C@@H]1CNCC[C@H]1NC(=O)C[C@@H](NC(=O)C[C@H](Cc1ccccc1)NC(=O)[C@@H]1CNCC[C@H]1N)C(C)C",
    "Result": "31.6 µM (active)"
  },
  {
    "Molecule": "COC(=O)[C@H](C)[C@@H]1C[C@@]1(C)[C@@H](NC(=O)OCc1ccccc1)c1ccccc1",
    "Result": "15.8 µM (active)"
  },
  {
    "Molecule": "CC(=O)[C@H]1[C@H]2[C@H](C(=O)[C@@H]3OC[C@H]2O3)[C@@H]2c3ccccc3C=CN12",
    "Result": "31.6 µM (active)"
  },
  {
    "Molecule": "COC(=O)[C@@]1(Cc2ccccc2)[C@H]2c3cc(C(=O)N4CCCC4)n(Cc4ccc(C)o4)c3C[C@H]2CN1C(=O)c1ccccc1",
    "Result": "12.6 µM (active)"
  },
  {
    "Molecule": "COc1ccccc1C[C@@H](Cc1nc2ccccc2[nH]1)c1nc2ccccc2[nH]1",
    "Result": "10 µM (active)"
  }
]

Asked: Query Potency for `C[C@@]12CCC(=O)C=C1CC[C@@H]1[C@@H]2[C@H](O)C[C@]2(C)[C@@H]1CC[C@]2(O)C(=O)COC(=O)CCC(=O)O`
Given back: inactive

Asked: Query Potency for `COC(=O)[C@@]1(Cc2ccc(F)cc2)[C@H]2c3cc(C(=O)N4CCCC4)n(Cc4ccc(C)o4)c3C[C@H]2CN1C(=O)c1ccccc1`
Given back: 10 µM (active)

Asked: Query Potency for CCCCCC1=C2CNC(CC(C)C)(C(=O)OC)C=C2C(C)C1=O (centres undefined)
Given back: 25.1 µM (active)

Asked: Query Potency for `C[C@@H](C(=O)O)[C@@H]1C[C@@]1(C)[C@@H](NC(=O)OCc1ccccc1)c1ccccc1`
Given back: inactive
